B1: FAM189A2 (parent)
chain: PRCDLVDLGEGKICFCCEEFQPAK

# Variants of: B1
# test_method_notes: protein stability index of a GFP-peptide fusion (GPS, HEK-293T) (PSI 1-6); higher = more stable;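 note: lentivirally expressed fusions sorted by FACS into six bins by GFP to DsRed ratio, PSI derived from sequencing read proportions per bin multiplied by bin number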
# condition_summary: c terminus: a fixed tail appended
protein stability index reference

[
  {
    "var": "C16W",
    "protein stability index": 2.1
  },
  {
    "var": "L5T",
    "protein stability index": 3.47
  },
  {
    "var": "Q21M",
    "protein stability index": 2.24
  },
  {
    "var": "Q21R",
    "protein stability index": 2.44
  },
  {
    "var": "A23I",
    "protein stability index": 2.65
  },
  {
    "var": "C3Y",
    "protein stability index": 1.91
  },
  {
    "var": "C17E",
    "protein stability index": 4.67
  },
  {
    "var": "K12N",
    "protein stability index": 2.7
  },
  {
    "var": "K12I",
    "protein stability index": 2.46
  },
  {
    "var": "G9F",
    "protein stability index": 1.77
  },
  {
    "var": "E19R",
    "protein stability index": 2.21
  },
  {
    "var": "C17I",
    "protein stability index": 2.05
  },
  {
    "var": "K24E",
    "protein stability index": 3.81
  },
  {
    "var": "E18M",
    "protein stability index": 2.07
  },
  {
    "var": "P1W",
    "protein stability index": 2.43
  },
  {
    "var": "L5E",
    "protein stability index": 3.84
  },
  {
    "var": "V6W",
    "protein stability index": 2.28
  },
  {
    "var": "F15A",
    "protein stability index": 3.94
  },
  {
    "var": "D7F",
    "protein stability index": 2.03
  },
  {
    "var": "E10M",
    "protein stability index": 2.01
  },
  {
    "var": "L8K",
    "protein stability index": 3.41
  },
  {
    "var": "R2L",
    "protein stability index": 2.8
  }
]

Measured values drawn from the supplement of paper PMC10567573 for this set.
